Here, each record is paired with measured growth inhibition data.
# method summary: NCI Yeast Anticancer Drug Screen. Data for the bub3 strain (AID 167)
# setup conditions: S. cerevisiae bub3 mutant strain, at 5.0 µM (retest, dose inferred, filed as 0.5), active compounds read high
This is part of a sample that, as a whole, favours compounds with a hit. Of some 79,000 tested, about 15% had one in any assay.

compound: CCS(=O)(=O)/C=C/c1ccncc1
growth inhibition, %: -2
//
compound: C[n+]1c(/C=C/c2ccccc2Cl)sc2ccccc21
growth inhibition, %: 98
//
compound: Nc1cc(Br)cc2c1[nH]c1ccc(Br)cc12
growth inhibition, %: 18
//
compound: CNC(=O)N(C1=NCC(C)S1)c1ccc(C)c(C)c1 (stereo not given)
growth inhibition, %: -22
//
compound: COC(=O)C1=C(CS(=O)c2ccccc2[N+](=O)[O-])ON(C)C1c1ccccc1 (stereo not given)
growth inhibition, %: -3
//
compound: O=S(NCc1ccccc1)c1ccccc1 (stereo not given)
growth inhibition, %: 0
//
compound: COc1cc(OC(C)C)cc2c1C(=O)C(C(O)(O)C(F)(F)F)=CC2=O
growth inhibition, %: 6
//
compound: O=CC(O)CN1CCCC1 (stereo not given)
growth inhibition, %: -4
//
compound: C=CS(=O)(=O)c1ccc2ccccc2c1
growth inhibition, %: -35
//
compound: C=C(CC)C[C@@H]1C[C@]2(C(=O)OC)c3[nH]c4ccccc4c3CCN2C1=O
growth inhibition, %: 2
//
compound: CCC1(O)c2ccccc2C(O)(CC)c2ccccc21 (stereo not given)
growth inhibition, %: 7
//
compound: CCOC(=O)C(/C=N\C(=S)Nc1c(CC)cccc1C(C)(C)C)=C(/O)c1ccccc1
growth inhibition, %: -8
//
compound: CC(C)CCCC(C)C1CCC2(C)C3=CCC4C(C)(CCC(O)C4(C)C)C3=CCC12C (stereo not given)
growth inhibition, %: -6
//
compound: O=C(Nc1ccc(/C=C/c2ccc(NC(=O)c3cc(S(=O)(=O)O)c4cccnc4c3O)cc2S(=O)(=O)O)c(S(=O)(=O)O)c1)c1cc(S(=O)(=O)O)c2cccnc2c1O
growth inhibition, %: 13
//
compound: Cc1cccc2c(CBr)cc(=O)[nH]c12
growth inhibition, %: 12
//
compound: C=CC(=O)Oc1ccccc1/C=C/C(=O)CCCCCC
growth inhibition, %: 0
//
compound: CN(C)CC(O)c1cc(-c2ccc(Cl)c(Cl)c2)nc2c(Cl)cc(Cl)cc12 (stereo not given)
growth inhibition, %: 0
//
compound: COc1ccc2c(c1)CCc1c(-c3noc4c3CCc3cc(OC)ccc3-4)noc1-2
growth inhibition, %: -2
//
compound: CCOC(=O)c1c(N)c(=O)n2c3c(cccc13)CC2
growth inhibition, %: -1
//
compound: Nc1ccc2c(SCc3ccc([N+](=O)[O-])cc3)c3ccccc3nc2c1
growth inhibition, %: 97
//
compound: CCOC(CN(C)C(=O)Nc1ccc(Cl)c(Cl)c1)OCC
growth inhibition, %: -26
//
compound: CCCCCN(CCC)CCCCCCCCCN1CCCc2cc(OC)ccc21
growth inhibition, %: -4
//
compound: COC1CC2CCC(C)[C@](O)(O2)C(=O)C(=O)N2CCCCC2C(=O)OC(C(C)CC2CCC(O)C(OC)C2)CC(=O)C(C)C=C(C)C(OC(=O)CCCN2CCCC2)C(OC)C(=O)C(C)CC(C)/C=C/C=C/C=C\1C (stereo not given in full)
growth inhibition, %: 97
//
compound: Cc1ccc2c(c1)C1(SC(C)C(=O)N1c1ccc(F)cc1)C(=O)N2 (stereo not given)
growth inhibition, %: 10
//
compound: CCCCCCC(OCCC)OCCC
growth inhibition, %: -10
//
compound: NC(=O)C(=CNc1nc(-c2ccc(Br)cc2)cs1)C(N)=O
growth inhibition, %: -11
//
compound: CC(C)c1cc(O)c2c(c1O)C1CC3C(C)(C)CCC[C@]23C(=O)O1 (stereo not given in full)
growth inhibition, %: 1
//
compound: CN(C)c1ccc(C(c2cc3c(cc2O)OCO3)N2CCCC2)cc1 (stereo not given)
growth inhibition, %: 0
//
compound: O=C(O)CSc1ccc(N=C=S)cc1
growth inhibition, %: -27
//
compound: O=C(O)/C=C/C(=O)Nc1cccc2ccccc12
growth inhibition, %: 64
//
compound: Oc1[nH]c2ccccc2c1N=NC(=S)N1CCCC1
growth inhibition, %: 26
//
compound: O=C(NNc1ncccn1)c1ccc(C(=O)NNc2ncccn2)cc1
growth inhibition, %: 3
//
compound: NC(=S)SCCC(=O)O
growth inhibition, %: -11
//
compound: COCCOC1=C(Cl)C(=O)c2c(O)ccc(O)c2C1=O
growth inhibition, %: 100
//
compound: CCSC(=S)NC(=O)c1ccccc1
growth inhibition, %: -7
//
compound: CN(C)N=Nc1ccc2[nH]c(=O)[nH]c2c1
growth inhibition, %: 14
//
compound: CC(C)C(Cl)CC/C(CBr)=C(\Cl)CCl (stereo not given)
growth inhibition, %: 23
//
compound: CC(C)OC(=O)c1ccccc1C(=C1C=C(Br)C(=O)C(Br)=C1)c1cc(Br)c(O)c(Br)c1
growth inhibition, %: 94
//
compound: CSC(=S)N/N=C\C(O)C(O)C(O)C(O)CO (stereo not given)
growth inhibition, %: -1
//
compound: CC1=C(c2ccccc2)C(=O)OC1=O
growth inhibition, %: -2
//
compound: Nc1ccc2nc(Nc3ccc(F)cc3)cnc2c1
growth inhibition, %: 7
//
compound: CC[C@@H](C(=O)[C@@H](C)[C@@H](O)[C@H](C)CCc1ccc(C)c(O)c1C(=O)O)[C@H]1O[C@](CC)([C@H]2CC[C@](O)(CC)[C@H](C)O2)C[C@@H]1C
growth inhibition, %: 65
//
compound: O=[N+]([O-])c1cc(F)c(Sc2cc(Br)c([N+](=O)[O-])cc2F)cc1Br
growth inhibition, %: 6
//
compound: COc1ccc2nc3cc(Cl)ccc3c(Nc3ccc(S(N)(=O)=O)cc3)c2c1
growth inhibition, %: -1
//
compound: O=C1C(=O)c2ccccc2C=C1Br
growth inhibition, %: 93

----------
# method summary: NCI Yeast Anticancer Drug Screen. Data for the bub3 strain (AID 167)
# setup conditions: S. cerevisiae bub3 mutant strain, at 50.0 µM
The panel holds about 79,000 compounds, 15% with a hit somewhere; the sample as a whole holds those more often. The source made the active and inactive calls. No stated cut-off is given here; in the data, active means growth inhibition above about 70%; inactive means the rest.
Classes used: Yes for active, No for inactive

molecule: C=C(CS(=O)(=O)c1ccccc1)[P+](c1ccccc1)(c1ccccc1)c1ccccc1
discrete label: No
--
molecule: O=C(Nc1ccc(Br)cc1)c1c(-c2ccccc2)c2ccc(O)cc2oc1=O
discrete label: Yes
--
molecule: CN(C)C=C1C(Cl)=C(C=O)CC(C=O)=C1Cl
discrete label: No
--
molecule: CCCCN=C(c1ccc(O)cc1)c1ccc(OC)cc1O
discrete label: No
--
molecule: O=C1C(=O)c2ccccc2C(O)=C1Sc1ccccc1
discrete label: Yes
--
molecule: CCOC(=O)/C=C\c1c(Cl)n(-c2ccccc2)c(=O)n(-c2ccccc2)c1=O
discrete label: Yes
--
molecule: O=[N+]([O-])c1ccc(N/N=C/c2cccnc2)cc1
discrete label: No
--
molecule: O=C1OC(c2cccc(Cl)c2)=N/C1=C\C=C/c1ccccc1
discrete label: No
--
molecule: NN=C(CC(O)(C(F)(F)Cl)C(F)(F)Cl)CC(O)(C(F)(F)Cl)C(F)(F)Cl
discrete label: Yes
--
molecule: COc1ccc(CN2CCCN(Cc3ccc(OC)cc3OC)C2c2cccc([N+](=O)[O-])c2O)c(OC)c1
discrete label: No
--
molecule: Cc1cccc(NC(=O)Oc2ccc(Cl)c3cccnc23)c1
discrete label: Yes
--
molecule: CCC(c1ccccc1)N1C(=O)c2ccccc2S1(=O)=O (stereo not drawn)
discrete label: Yes
--
molecule: Cc1c(Cl)ccc2c(C(O)CNCc3ccccc3)cc(-c3ccc(Cl)cc3)nc12 (stereo not drawn)
discrete label: No
--
molecule: COc1cc(C2CC(C)(OC)Oc3cc4c(cc32)OCO4)cc(OC)c1O (stereo not drawn)
discrete label: No
--
molecule: O=C(O)CCC/C(=N\Nc1ccccc1)C(=O)O
discrete label: Yes
--
molecule: O=[N+]([O-])c1cc(C(F)(F)F)cc([N+](=O)[O-])c1CCl
discrete label: Yes
--
molecule: O=C1c2ccccc2C2(O)c3cc4ccccc4cc3OC12O (stereo not drawn)
discrete label: No
--
molecule: NSc1ccccn1
discrete label: Yes
--
molecule: CC1(C)CCC2(CC1)CC(=O)OC(=O)C2
discrete label: No
--
molecule: O=C1c2cc(F)ccc2-c2c(F)cc(F)c(F)c21
discrete label: No
--
molecule: COC(=O)CCCCC(=O)N(C(C)C)C(C)C
discrete label: No
--
molecule: COc1ccc(C(c2ccc(N(C)C)cc2)c2ccc(N(C)C)cc2)cc1
discrete label: Yes
--
molecule: Clc1ccc([I+]c2cccs2)cc1
discrete label: Yes
--
molecule: CC(=O)c1ccc(Cl)c(N=Cc2cc(Br)ccc2O)c1
discrete label: Yes
--
molecule: ClC(Cl)=C1C(=C(Cl)Cl)C(Cl)(Cl)C1(Cl)Cl
discrete label: Yes
--
molecule: O=C(COc1ccc(Br)cc1Br)N1N=C(c2ccc([N+](=O)[O-])o2)CC1(O)c1ccccc1 (stereo not drawn)
discrete label: No
--
molecule: COC1OC2COC(c3ccccc3)OC2C(NC(=S)SCc2ccccc2)C1O (stereo not drawn)
discrete label: Yes
--
molecule: O=[N+]([O-])/C(C(Cl)=C(Cl)Cl)=C(/Sc1ccccc1)N1CCCCC1
discrete label: Yes
--
molecule: C1=CC2OC1c1cc3ccccc3cc12
discrete label: Yes
--
molecule: CCCCCCCCCCCCNC(=O)C[n+]1cccc(C(N)=O)c1
discrete label: No
--
molecule: CNc1cc(SC)nc(N)n1
discrete label: Yes
--
molecule: O=S(=O)(CC(Br)c1ccccc1)CC(Br)c1ccccc1 (stereo not drawn)
discrete label: No
--
molecule: Cc1cc(N2C(=O)CCSC2=S)c([N+](=O)[O-])cc1C
discrete label: Yes
--
molecule: OC(Cc1ccc2ccccc2c1)CN1CCC(c2ccccc2)CC1 (stereo not drawn)
discrete label: Yes
--
molecule: CC(C)OC(=O)c1ccc(NC(=O)CCl)cc1
discrete label: No
--
molecule: Oc1ccc[nH]c1=S
discrete label: Yes
--
molecule: Cc1ccc2nn(-c3ccc(O)cc3)nc2c1
discrete label: Yes
--
molecule: CCCCCN=C(C)C(C)=NCCCCC
discrete label: Yes
--
molecule: N#Cc1cn(-c2c3ccccc3nc3ccccc23)c(=O)[nH]c1=O
discrete label: No
--
molecule: CCCCCCCCCCCCCCCC1=NCCN1C
discrete label: Yes
--
molecule: CCN(CC)Cc1cc(Nc2c3ccccc3nc3c2[nH]c2ccccc23)ccc1O
discrete label: No
--
molecule: COc1cc(C2c3cc4c(cc3C(OC3CCCCO3)C3COC(=O)C23)OCO4)cc(OC)c1OC (stereo not drawn)
discrete label: No
--
molecule: CCCC[N-]CC(O)C[NH-].O=C(O)CC(=O)O.[Pt+2] (stereo not drawn)
discrete label: No
--
molecule: N#Cc1ccc(C(F)(F)F)cc1[N+](=O)[O-]
discrete label: Yes
--
molecule: CC(=O)n1c(=S)n(C(C)=O)c2ccccc21
discrete label: Yes
--
molecule: O=C(N(c1ccc(Cl)cc1)c1ccc(Cl)cc1)C(Cl)(Cl)Cl
discrete label: No
--
molecule: Cc1ccc2sc(=S)sc2c1
discrete label: Yes
--
molecule: CCOC(=O)C(C(=O)OCC)C(=O)c1ccc2c(c1)OCO2
discrete label: Yes
